Assay: in vitro
Format: in vitro ADME, human
Details: both, human
PROPERTY_MEASURED: Km at 60 min

STRUCTURE_NOTATION | RESULT
N#Cc1c(Cl)cccc1Cl | 450 nM

----------
Test: in vitro
Assay type: in vitro ADME, mouse
Conditions: mouse, pH 7.4

STRUCTURE_NOTATION | Km [µM]
N#Cc1c(Cl)cccc1Cl | 0.43

----------
Assay: in vitro
Type: in vitro ADME, mouse
Settings: Cyp2a5-null, mouse, pH 7.4
PROPERTY_MEASURED: Km

STRUCTURE_NOTATION | RESULT
N#Cc1c(Cl)cccc1Cl | 4.2 µM
